These measurements were taken from paper PMC7819943.

- Measured On: OsSMF1 (Oryza sativa, UniProt Q6ZLB0 1-436)
- Sequence: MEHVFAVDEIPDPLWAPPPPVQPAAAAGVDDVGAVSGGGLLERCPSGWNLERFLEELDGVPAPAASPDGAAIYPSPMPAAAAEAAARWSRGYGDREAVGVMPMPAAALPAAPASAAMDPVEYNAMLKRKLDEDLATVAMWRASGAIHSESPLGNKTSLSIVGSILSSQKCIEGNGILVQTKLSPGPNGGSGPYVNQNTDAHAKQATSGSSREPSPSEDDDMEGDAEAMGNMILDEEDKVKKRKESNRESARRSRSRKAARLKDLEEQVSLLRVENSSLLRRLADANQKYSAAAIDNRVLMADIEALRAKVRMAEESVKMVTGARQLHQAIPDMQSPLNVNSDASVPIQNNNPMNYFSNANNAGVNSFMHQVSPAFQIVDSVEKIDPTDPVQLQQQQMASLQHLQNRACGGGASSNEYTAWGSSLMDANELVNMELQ
- Procedure Text: protein-binding microarray (RPBM); PBS, 2% BSA, 51.3 ng/ul salmon testes DNA, 50 uM zinc acetate, 200 nM TF, 25 C, 1 h; high values mean tight binding
- Conditions Used: protein: recombinant; tags: N-terminal polyhistidine and DsRed monomer fusion (pET32a); chain copies: 2; label: CyDye5-dUTP incorporated in the synthesized complementary strand; 3' TTTTT single-stranded linker to array surface; dsDNA, one strand shown
Whole data set: some 39,000 sequences, median “fluorescence intensity (a.u.)” near 4,300, cut for the highest 2% near 39,000. This is one part of a sample in which the highest values are shown more often than they occur.
Below: a set of entries, each annotated with reported binding signal.
Experimental Endpoint: binding signal

INSERT INTO measurements (residues, experimental_endpoint, endpoint_result) VALUES
  ('ATAGCCCAACTCGAATCAATCCACGTCTCCACCGTTCATCCGGAGTCACCTAGTGCAG', 'binding signal', '3360 fluorescence intensity (a.u.)'),
  ('TTTGGTGCGAGCGAAATACCAGGATCTTTATACACATAGCCGGAGTCACCTAGTGCAG', 'binding signal', '58000 fluorescence intensity (a.u.)'),
  ('ATACCTGATCCTACTTGTCATACACATATTTATCTTATAGCGGAGTCACCTAGTGCAG', 'binding signal', '3620 fluorescence intensity (a.u.)'),
  ('ATGCCATTGATTCAATAGTGAATCATCGTTCTTTCTGGATCGGAGTCACCTAGTGCAG', 'binding signal', '3550 fluorescence intensity (a.u.)'),
  ('TTTATCAAAGCGTCATATATCAATGACCAGAGGTACAACACGGAGTCACCTAGTGCAG', 'binding signal', '3940 fluorescence intensity (a.u.)');
